The values you see were collected from the supplement of paper PMC9170038.

- System: MS2 coat protein
- protocol_details: apparent KD of MS2 coat protein; designed switch direction (-1 OFF switch, 1 ON switch): 1; higher = weaker reporter binding
- experimental_context: input ligand: microRNA oligo, concentration not stated
Reported values of apparent KD of MS2 coat protein for individual entries
observable: apparent KD of MS2 coat protein

>>> observed("GAGGGACAGACCAACAUGAGGAUCACCCAUGUCCUCGCAGGUCAGGAUAUCCCGCCAACAGGCGAGGAGAAGGGACGGUGAACC (Eterna round: R96, puzzle: Same State NG 3)")
"672 nM"
>>> observed("GGAGCAGGGUGAGGAUAUGUAAAAUUCGAAAGGACAGAAGGCACUUAACCAACAUGAGGAUCACCCAUGUAGGCGACGGCACCA [Eternabot solution 8] (Eterna round: R96, puzzle: Same State NG 1)")
"19.9 nM"
>>> observed("UGCCUGAGUCGAGGAUAUUAUGGAUCCUUUAAUACAUGAGGAUCACCCAUGUAAUUAAUUAUACAUGAGAAGGUGACUCAGGCU [SSNG2/11-B3] (Eterna round: R96, puzzle: Same State NG 2)")
"194 nM"
>>> observed("AGCAAAGCGACAGGAUAUGGUAAGGAUCUCUUACCAGAAGGGUCAAGUGCAUGACAUGAGGAUCACCCAUGUAGGUUGUUUACC [Eternabot solution 44] (Eterna round: R96, puzzle: Same State NG 1)")
"18.5 nM"
>>> observed("AACUAACAUGAGGAUCACCCAUGUUGCAGCGGUUGAGGAUAUGUGGGUGAAAAUAGCAUGGCAGAAGGCGAGUGUA [SameState1 Malc#25] (Eterna round: R96, puzzle: Same State 1)")
"95.9 nM"
>>> observed("UUAAUAAUGUUAGGAUAUACAUGAGGAAUCCUCGUAGAAGGAACAUGACAUGAGGAUCACCCAUGUAGCGCUCGAAAGAGCGCA [Mat - Same State NG 1 - JL mod - D48] (Eterna round: R96, puzzle: Same State NG 1)")
"16.3 nM"
>>> observed("GUGGUCAGACAUGAGGAUCACCCAUGUGGAAUAAAUAAGGAGAAGGAUAUUUAAUAUAGGAUAUAAAAGAAGGUCUGGUUGGUG (Eterna round: R96, puzzle: Same State NG 3)")
"55.6 nM"
>>> observed("GACCGCGAGGAAGGAUAUCGAGCCUUAUUGGCUCGAGAAGGUCCAUAAAGGACAUGAGGAUCACCCAUGUGGUGAGAAGCGGUC [Mat - Same State NG 1 - JL mod - D76] (Eterna round: R96, puzzle: Same State NG 1)")
"1430 nM"
>>> observed("GGUCAGACUCACAUGAGGAUCACCCAUGUACCGGAAACGGCACAGGAUAUCUGUCCGAAAAGGUCAGAGAAGGGUGUACUGACC [Fiskers NG3ss - 53] (Eterna round: R96, puzzle: Same State NG 3)")
"22.9 nM"
>>> observed("GGCGAAGGAGAAGGAUAUAUCUUGGACAUAUAGAUGCACAUGAGGAUCACCCAUGUCAUCAUGGGAUAGAAGGUCUGCUUCACC [Eternabot solution 33] (Eterna round: R96, puzzle: Same State NG 2)")
"10.3 nM"
>>> observed("CUUAACAGAGGAGGAUAUGCAGAGGAUCACCCUGUAGAAGGCCACAGAGGAGGAUAUGCAGAGGAUCACCCUGUAGAAGGCCAC [pwkr ssNG DX.8] (Eterna round: R96, puzzle: Same State NG 1)")
"143 nM"
>>> observed("UAGUGAUUGCAAGGAUAUGCUUGUGUUUUAUUUUUUUUAAUAUCUAACAUGAGGAUCACCCAUGUGCAGAAGGUGCUUGAUUUG [JR_SSNG2_Sub076] (Eterna round: R96, puzzle: Same State NG 2)")
"46.5 nM"
>>> observed("GAUCGUUUGAUAGGAUAUCGCUAUACAUGAGGAUCACCCAUGUUUACCACGCUGGUUUUUCAUACCGAGAAGGAUUCUGAUGAU [salish99_SSNG02_r04_009] (Eterna round: R96, puzzle: Same State NG 2)")
"24.9 nM"
>>> observed("GUGGUCAGACAUGAGGAUCACCCAUGUGGAAUAAAUAACAGACAGGAUAUCUAAUAUAGGAUAUAGGAGAAGGGUCGAUUGGUG (Eterna round: R96, puzzle: Same State NG 3)")
"73.5 nM"
>>> observed("ACAUGAGGAUCACCCAUGUCUUUAUCCGAUUCUUCAUUUACGUAGGAUAUCGUCUAUACUAUCAUCGAGAAGGACGUUCUUUAA [JR_SSNG3_Sub070] (Eterna round: R96, puzzle: Same State NG 3)")
"13.9 nM"
>>> observed("AUUAGUUAUGCAGGAUAUGAUUAACAUGAGGAUCACCCAUGUGGUGUUGUGAGUAAGGAGAGUGAUCAGAAGGGCAUUUUUUUU [JMF's solution 67] (Eterna round: R96, puzzle: Same State NG 2)")
"264 nM"
>>> observed("AAAAAACAUGAGGAUCACCCAUGUCUUUUGACAUGAGGAUAUGUACAGACUUCGGUCUGUACAGAAGGCAUGUAAA [SS1 - 1028] (Eterna round: R96, puzzle: Same State 1)")
"336 nM"
>>> observed("UGUUGUAUUACAGGAUAUCUAUUAUUUUUAUAUAGAGAAGGGUAUUCACAUGAGGAUCACCCAUGUAUAUACGAGGAAGUUGUG [JMF's solution 28] (Eterna round: R96, puzzle: Same State NG 1)")
"29.6 nM"

---

Listed sequences paired with reported apparent KD of MS2 coat protein
- System: MS2 coat protein
- protocol_details: apparent KD of MS2 coat protein; designed switch direction (-1 OFF switch, 1 ON switch): -1; higher = weaker reporter binding
- experimental_context: input ligand: none
observable: apparent KD of MS2 coat protein (nM)

>>> observed("ACAUGAGGAUCACCCAUGUCCGGCUGGUCUGGUCCGGCUGUCGAGGAUAUAGUCCGGUGUUCGCGCUAGAAGGCGGGAGCUGGA [Aenatbe mod 50] (Eterna round: R96, puzzle: Exclusion NG 3)")
85
>>> observed("UACGAGUUAGGAUAUGCAAUGGGCUCGCUUUCCUUCGAUAAACUUGAGGAUCACCCAAGUAGAAGGAACUUGUA [Mod 36 - Jieux - Exclusion 2] (Eterna round: R97, puzzle: Exclusion 2)")
16.2
>>> observed("UAUUAGCAAGCGAGAUCCCACAUGAGGAUCACCCAUGUAAAAGCAUCCAGAAUUACUGGGUGCAAAGCUCGUCUUAU [Winner reversed engineered 7] (Eterna round: R97, puzzle: Sensor, turn-off variant 1)")
24.8
>>> observed("GUCUUGAUAGGAUAUACAUGAGGAUCACCCAUGUCCCACCCGUUACCUCUGACCCUAUGUAGAAGGAUCGUUUG [Exy#17] (Eterna round: R97, puzzle: Exclusion 3)")
48.3
>>> observed("CUGAACCCGGUAGGAUAUAUUGUGGGCAAGCAUGGAACGACAUGAGGAUCACCCAUGUAAUUUAGGUAGAAGGGCCAAAAGAUU [Excl-NG2-LRO09] (Eterna round: R96, puzzle: Exclusion NG 2)")
53.9

---

- Tested on: MS2 coat protein
- protocol_details: apparent KD of MS2 coat protein; designed switch direction (-1 OFF switch, 1 ON switch): -1; higher = weaker reporter binding
- experimental_context: input ligand: none
Everything with apparent KD of MS2 coat protein lower than 0.08 µM is Not fulfilled; everything else, including exactly 0.08 µM, is Fulfilled.

>>> class_name("GCCCGGCGUGUAGGAUAUGGUUCCGUUUCGGUUCCAGAAGGACAUGAGGAUCACCCAUGUGCCUGUCGUCGGUCGUCACCGGGC [salish99_ExNG1_r04_401] (Eterna round: R96, puzzle: Exclusion NG 1)")
"Not fulfilled"
>>> class_name("CCAAGCAAAAUCAUUAACAACAUGAGGAUCACCCAUGUGUAAGCAAUUAUGUUUGGGCUCUUUAGAGCUCGUCUUAU [JR_STOV1_Sub044] (Eterna round: R97, puzzle: Sensor, turn-off variant 1)")
"Not fulfilled"
>>> class_name("CCGCUCCGUGUAGGAUAUUGGCGUGCCCUGCGCCGAGAAGGACAUGAGGAUCACCCAUGUAUGUUAUUAUCACGCGUGGCGCAC [Design 76] (Eterna round: R96, puzzle: Exclusion NG 1)")
"Not fulfilled"
>>> class_name("UUUAUGUCAGGAUAUACAUGAGGAUCACCCAUGUAUAUCUUAAAGUAUACAUGGGAAUGUAGAAGGGACCUCCU [Omei Ex3 Pseudoloop 5] (Eterna round: R97, puzzle: Exclusion 3)")
"Not fulfilled"
>>> class_name("UGUGCGUCAGGAUAUUCUAUUUAUUACAUGAGGAUCACCCAUGUGAAUGUACAAGGGUGUGAAGAAGGGACUUGUG [LRO-Excl5-03-mod A17d by Omei] (Eterna round: R97, puzzle: Exclusion 5)")
"Fulfilled"
>>> class_name("UAUUAAGCAAGCAGAUCCCACAUGAGGAUCACCCAUGUGCUCGUCUUAUAAGGUACUGUGACGAAAGUCACGGUACC [Sensor 3, v1 - 91 v12] (Eterna round: R97, puzzle: Sensor, turn-off variant 1)")
"Fulfilled"
>>> class_name("CUCAUGUGUGAGGAUAUUAGAGCGAGCGUGUGAUAAGAAGGCACAACAUGAGGAUCACCCAUGUAGAGAGAGUG [Alacar 1st] (Eterna round: R97, puzzle: Exclusion 6)")
"Not fulfilled"
